Ref: the supplement of paper PMC6755084

B1: F1*; the commonest letter at each place (parent)
chain: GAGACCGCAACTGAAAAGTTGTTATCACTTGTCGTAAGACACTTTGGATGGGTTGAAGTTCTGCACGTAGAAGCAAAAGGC

Variants of: B1
Test: fraction ligated after 30 min (ligated reads / total reads); higher = more ligase activity
Conditions: with F1*sub RNA substrate (template-directed ligation), 42 °C
quantityMeasured: fraction ligated
Returns: the value as a bare number; no unit string appended.

A27C T29G ... 0.797
A27T T29G ... 0.805
T23A C40A ... 0.815
A27T T35C ... 0.811

Reported fraction ligated, variant A24T C42T : ____
0.792

Try this variant too: G55A A56T
0.8

Consider next the variant T30C G46T in the same way.
0.78
